Reference source: patent US20240140953A1

Parameter: IC50. Scope: all listed entries.
# Tested on: MV4-11 (MLL-AF4)
# PROCEDURE_DETAILS: LTP assay, CellTiterGlo, T4-T14 (Example 103), MV4-11
# Type: cell-based, human
# CONDITIONS: Homo sapiens, MV4-11, 96 h, MV4-11 (MLL-AF4), T4 (Day 4); read-out: IC50 T4 (Day 4)
The figure you give is taken to be in µM; do not add the unit.

[[record]]
item_smiles = "Cn1nc(-c2cccnc2)cc1CC(=O)Nc1ccc(-c2cc3c(N4CCOCC4)ncnc3[nH]2)cc1"
target_under_test = "MV4-11 (MLL-AF4)"
recorded_value = 0.65

[[record]]
item_smiles = "O=C(Nc1ccc(-c2nc3c(N4CCOCC4)nccc3[nH]2)cc1)Nc1cc(-c2cccnc2)n[nH]1"
target_under_test = "MV4-11 (MLL-AF4)"
recorded_value = 1.29


Now, please, on to the next compound.
[Q] Consider the compound shown here: `O=C(Cc1cc(-c2cccnc2)n[nH]1)Nc1ccc(-c2nc3c(N4CCOCC4)ncnc3[nH]2)cc1` What is its recorded IC50?
[A] 1.55

====

Parameter: pIC50. Scope: all listed entries.
# System: MV4-11
# PROCEDURE_DETAILS: Long term proliferation, Cell Titer-Glo (Table 3B), MV4-11
# Type: cell-based
# CONDITIONS: Homo sapiens, 168 h; MV4-11, Cell Titer-Glo, Day 7; read-out: Day 7 IC50
Note: pIC50 values are expressed as the negative base-10 logarithm of concentration in M.

[[record]]
molecule = "O=C(Nc1ccc(-c2cc3c(N4CCOCC4)ncnc3[nH]2)cc1)Nc1cc(-c2cccnc2)n[nH]1 [Compound 9]"
target_under_test = "MV4-11"
observable = "pIC50"
recorded_value = 6.42


Now, please, on to the next molecule.
[Q] Consider the molecule shown here: O=C(Nc1ccc(-c2cc3c(N4CCOCC4)ncnc3[nH]2)cc1)Nc1cc(-c2ccncc2)no1 [Compound 8] What is its recorded pIC50?
[A] 7.00

====

# Test system: HL-60
# PROCEDURE_DETAILS: LTP assay, CellTiterGlo, T4-T14 (Example 103), HL-60
# Assay type: cell-based
# CONDITIONS: Homo sapiens, HL-60, 96 h, HL-60, T4 (Day 4); read-out: IC50 T4 (Day 4)
Parameter: IC50. Scope: all listed entries.

Recorded results for 5 molecules are shown here.
[[record]]
molecule = "Cc1cn(-c2nccc3[nH]c(-c4ccc(NC(=O)Cc5cc(-c6cccnc6)n[nH]5)cc4)nc23)cn1 [Compound 31]"
observable = "IC50"
recorded_value = "> 5 µM"

[[record]]
molecule = "Cc1ccc(-c2cc(CC(=O)Nc3ccc(-c4nc5c(N6CCOCC6)nccc5[nH]4)cc3)[nH]n2)cn1 [Compound 32]"
observable = "IC50"
recorded_value = "> 5 µM"

[[record]]
molecule = "O=C(Cc1cc(-c2cccnc2)n[nH]1)Nc1ccc(-c2nc3c(N4CCOCC4)ncnc3[nH]2)cc1 [Compound 12]"
observable = "IC50"
recorded_value = "> 5 µM"

[[record]]
molecule = "O=C(Nc1ccc(-c2nc3c(N4CCOCC4)nccc3[nH]2)cc1)Nc1cc(-c2cccnc2)n[nH]1 [Compound 19]"
observable = "IC50"
recorded_value = "1.55 µM"

[[record]]
molecule = "Cn1nc(-c2cccnc2)cc1CC(=O)Nc1ccc(-c2cc3c(N4CCOCC4)ncnc3[nH]2)cc1 [Compound 11]"
observable = "IC50"
recorded_value = "0.69 µM"


[Q] Consider the molecule shown here: Cc1nccc2[nH]c(-c3ccc(NC(=O)Cc4cc(-c5cccnc5)n[nH]4)cc3)nc12 [Compound 33] What is its recorded IC50?
[A] > 5 µM

====

# Tested on: MV4-11 (MLL-AF4)
# PROCEDURE_DETAILS: LTP assay, CellTiterGlo, T4-T14 (Example 103), MV4-11
# Assay type: cell-based, human
# CONDITIONS: Homo sapiens, MV4-11, MV4-11 (MLL-AF4), T7; read-out: IC50 T7
Parameter: pIC50. Scope: all listed entries.
Note: pIC50 values are expressed as the negative base-10 logarithm of concentration in M.

Recorded results for 3 compounds are shown here.
[[record]]
item_smiles = "O=C(Cc1cc(-c2cccnc2)n[nH]1)Nc1ccc(-c2nc3c(N4CCOCC4)ncnc3[nH]2)cc1"
recorded_value = 5.90

[[record]]
item_smiles = "Cn1nc(-c2cccnc2)cc1CC(=O)Nc1ccc(-c2cc3c(N4CCOCC4)ncnc3[nH]2)cc1"
recorded_value = 6.30

[[record]]
item_smiles = "Cc1ccc(-c2cc(CC(=O)Nc3ccc(-c4nc5c(N6CCOCC6)nccc5[nH]4)cc3)[nH]n2)cn1"
recorded_value = 5.31


[Q] Consider the compound shown here: `O=C(Nc1ccc(-c2nc3c(N4CCOCC4)nccc3[nH]2)cc1)Nc1cc(-c2cccnc2)n[nH]1` What is its recorded pIC50?
[A] 5.85

====

# Test system: MV4-11 (MLL-AF4)
# PROCEDURE_DETAILS: LTP assay, CellTiterGlo, T4-T14 (Example 103), MV4-11
# Type: cell-based, human
# CONDITIONS: Homo sapiens, MV4-11, MV4-11 (MLL-AF4), T14; read-out: IC50 T14
Parameter: pIC50. Scope: all listed entries.
Note: pIC50 values are expressed as the negative base-10 logarithm of concentration in M.

Recorded results for 2 compounds are shown here.
[[record]]
item_smiles = "Cc1cn(-c2nccc3[nH]c(-c4ccc(NC(=O)Cc5cc(-c6cccnc6)n[nH]5)cc4)nc23)cn1"
observable = "pIC50"
recorded_value = 5.66

[[record]]
item_smiles = "O=C(Cc1cc(-c2cccnc2)n[nH]1)Nc1ccc(-c2nc3c(N4CCOCC4)ncnc3[nH]2)cc1"
observable = "pIC50"
recorded_value = 6.06


[Q] Consider the compound shown here: `Cc1nccc2[nH]c(-c3ccc(NC(=O)Cc4cc(-c5cccnc5)n[nH]4)cc3)nc12` What is its recorded pIC50?
[A] 5.63

====

# Tested on: RS4-11 (MLL-AF4)
# PROCEDURE_DETAILS: LTP assay, CellTiterGlo, T4-T14 (Example 103), RS4-11
# Assay type: cell-based
# CONDITIONS: Homo sapiens, RS4-11, 96 h, RS4-11 (MLL-AF4), T4 (Day 4); read-out: IC50 T4 (Day 4)
Parameter: IC50. Scope: all listed entries.

Recorded results for 2 compounds are shown here.
[[record]]
item_smiles = "Cc1ccc(-c2cc(CC(=O)Nc3ccc(-c4nc5c(N6CCOCC6)nccc5[nH]4)cc3)[nH]n2)cn1"
target_under_test = "RS4-11 (MLL-AF4)"
observable = "IC50"
recorded_value = "> 5 µM"

[[record]]
item_smiles = "Cc1cn(-c2nccc3[nH]c(-c4ccc(NC(=O)Cc5cc(-c6cccnc6)n[nH]5)cc4)nc23)cn1"
target_under_test = "RS4-11 (MLL-AF4)"
observable = "IC50"
recorded_value = "> 5 µM"


Now, please, on to the next compound.
[Q] Consider the compound shown here: `Cc1nccc2[nH]c(-c3ccc(NC(=O)Cc4cc(-c5cccnc5)n[nH]4)cc3)nc12` What is its recorded IC50?
[A] > 5 µM

====

Parameter: IC50. Scope: all listed entries.
# Tested on: MOLM-13 (MLL-AF9)
# PROCEDURE_DETAILS: LTP assay, CellTiterGlo, T4-T14 (Example 103), MOLM-13
# Format: cell-based, human
# CONDITIONS: Homo sapiens, MOLM-13, MOLM-13 (MLL-AF9), T7; read-out: IC50 T7

[[record]]
item_smiles = "Cc1nccc2[nH]c(-c3ccc(NC(=O)Cc4cc(-c5cccnc5)n[nH]4)cc3)nc12"
target_under_test = "MOLM-13 (MLL-AF9)"
observable = "IC50"
recorded_value = "> 5 µM"

[[record]]
item_smiles = "Cc1cn(-c2nccc3[nH]c(-c4ccc(NC(=O)Cc5cc(-c6cccnc6)n[nH]5)cc4)nc23)cn1"
target_under_test = "MOLM-13 (MLL-AF9)"
observable = "IC50"
recorded_value = "> 5 µM"


Now, please, on to the next molecule.
[Q] Form: Entry = `Cc1ccc(-c2cc(CC(=O)Nc3ccc(-c4nc5c(N6CCOCC6)nccc5[nH]4)cc3)[nH]n2)cn1` | System = MOLM-13 (MLL-AF9) | IC50 = ____
[A] > 5 µM

====

Parameter: IC50. Scope: all listed entries.
# Tested on: MV-4-11
# PROCEDURE_DETAILS: Long term proliferation assay (Table 3A), MV-4-11
# Type: cell-based
# CONDITIONS: Homo sapiens, MV4-11; MV-4-11, Day 4; read-out: MV-4-11 Day 4 IC50
Numeric answer plus unit only.

[[record]]
compound = "O=C(Nc1ccc(-c2cc3c(N4CCOCC4)ncnc3[nH]2)cc1)Nc1cc(-c2ccncc2)no1 [Compound 8]"
observable = "IC50"
recorded_value = "355 nM"

[[record]]
compound = "O=C(Nc1ccc(-c2cc3c(N4CCOCC4)ncnc3[nH]2)cc1)Nc1cc(-c2cccnc2)n[nH]1 [Compound 9]"
observable = "IC50"
recorded_value = "490 nM"

[[record]]
compound = "CC(C)c1c(-c2cccnc2)noc1NC(=O)Nc1ccc(-c2cc3c(N4CCOCC4)ncnc3[nH]2)cc1 [Compound 6]"
observable = "IC50"
recorded_value = "229 nM"

[[record]]
compound = "O=C(Cc1cc(-c2cccnc2)no1)Nc1ccc(-c2cc3c(N4CCOCC4)ncnc3[nH]2)cc1 [Compound 5]"
observable = "IC50"
recorded_value = "129 nM"


Now, please, on to the next compound.
[Q] Consider the compound shown here: O=C(Cc1cc(-c2cccnc2)n[nH]1)Nc1ccc(-c2cc3c(N4CCOCC4)ncnc3[nH]2)cc1 [Compound 10] What is its recorded IC50?
[A] 220 nM
